Biological target: human AspH (His6-AspH315–758) (Homo sapiens, UniProt Q12797)
Construct: N-Terminally His6-tagged human AspH315–758 (His6-AspH315–758) was produced in Escherichia coli BL21 (DE3) cells; made in house; host or cells: Escherichia coli BL21 (DE3), pET-28a(+) vector
Assay: SPE-MS AspH inhibition assay (hFX-CP101-119 substrate hydroxylation)
Type: biochemical
Settings: AspH-inhibitor screening, 384-well Plate 1
Structures can show the parent of a compound that is named as a salt.
Rule: Plate 1 (% inhibition) of 10% or more gives label 1; anything lower gives label 0.

Reference set (4 entries):
- compound: "Cc1cc(Nc2ncc(Cl)c(Nc3ccccc3S(=O)(=O)C(C)C)n2)c(OC(C)C)cc1C1CCNCC1"
  experimental.system: "human AspH (His6-AspH315–758) (Homo sapiens, UniProt Q12797)"
  qualitative.label: "label 0"
- compound: "COc1nc(N)nc2c1ncn2[C@@H]1O[C@H](CO)[C@@H](O)[C@@H]1O"
  experimental.system: "human AspH (His6-AspH315–758) (Homo sapiens, UniProt Q12797)"
  qualitative.label: "label 0"
- compound: "CCn1c(C(=O)N(C2CC2)C2CC2)cc2c3c(ncn3C)c(Nc3cc(C)n(C)n3)nc21"
  experimental.system: "human AspH (His6-AspH315–758) (Homo sapiens, UniProt Q12797)"
  qualitative.label: "label 0"
- compound: "CC(=O)O[C@@]12CO[C@@H]1C[C@H](O)[C@@]1(C)C(=O)[C@H](O)C3=C(C)[C@@H](OC(=O)[C@H](O)[C@@H](NC(=O)OC(C)(C)C)c4ccccc4)C[C@@](O)([C@@H](OC(=O)c4ccccc4)[C@H]21)C3(C)C"
  experimental.system: "human AspH (His6-AspH315–758) (Homo sapiens, UniProt Q12797)"
  qualitative.label: "label 0"

Q: Given C[C@]12CC[C@@H]3c4ccc(O)cc4C[C@@H](CCCCCCCCC[S+]([O-])CCCC(F)(F)C(F)(F)F)[C@H]3[C@@H]1CC[C@@H]2O (some centres unmarked) , state whether its Plate 1 (% inhibition) is at least 10%.
A: label 1

Q: // inclusive: Plate 1 (% inhibition) at least 10%? input: COc1cc(Nc2ncc(F)c(Nc3ccc4c(n3)NC(=O)C(C)(C)O4)n2)cc(OC)c1OC
A: label 1

Q: Decide: is the reported value of Plate 1 (% inhibition) for Nc1nc2nc[nH]c2c(=S)[nH]1 equal to or greater than 10%?
A: label 0

Q: Is the recorded value of Plate 1 (% inhibition) equal to or greater than 10% for this compound? Cc1c(Cn2c(C)nc3c(C(=O)O)cc(N4CCOCC4)cc32)cccc1C(F)(F)F
A: label 0

Q: Hi team, for Nc1ccn([C@@H]2O[C@H](CO)[C@@H](O)[C@@H]2O)c(=O)n1 [Cytarabine hydrochloride] , is the recorded Plate 1 (% inhibition) at or above 10%?
A: label 0

----------
Molecular target: human AspH (His6-AspH315–758) (Homo sapiens)
Construct: N-Terminally His6-tagged human AspH315–758 (His6-AspH315–758) was produced in Escherichia coli BL21 (DE3) cells; made in house; host or cells: Escherichia coli BL21 (DE3), pET-28a(+) vector
Sequence (Q12797 315-758): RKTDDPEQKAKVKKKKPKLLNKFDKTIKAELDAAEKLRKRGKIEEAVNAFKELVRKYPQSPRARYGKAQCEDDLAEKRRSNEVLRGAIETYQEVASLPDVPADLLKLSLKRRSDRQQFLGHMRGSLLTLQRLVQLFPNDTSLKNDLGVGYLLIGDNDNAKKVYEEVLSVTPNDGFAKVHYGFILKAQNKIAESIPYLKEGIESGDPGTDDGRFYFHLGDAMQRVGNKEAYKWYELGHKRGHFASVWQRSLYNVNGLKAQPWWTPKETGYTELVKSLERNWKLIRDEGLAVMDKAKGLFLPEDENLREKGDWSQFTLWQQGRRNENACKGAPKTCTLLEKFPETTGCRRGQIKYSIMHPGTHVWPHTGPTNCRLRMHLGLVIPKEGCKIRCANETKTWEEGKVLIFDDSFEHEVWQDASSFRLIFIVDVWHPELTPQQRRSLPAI
Assay: SPE-MS AspH inhibition assay (hFX-CP101-119 substrate hydroxylation)
Type: biochemical
Conditions: AspH-inhibitor screening, Plate 1-duplicate
In this section we review reported Plate 1-duplicate (% inhibition) values for a set of compounds.
Report the value in % with no unit label.

Recorded Plate 1-duplicate (% inhibition), per entry:
- compound: "CS(=O)(=O)c1ccc(C(=O)Nc2ccc(Cl)c(-c3ccccn3)c2)c(Cl)c1"
  meas.value: 2.79
- compound: "CCCS(=O)(=O)Nc1ccc(F)c(C(=O)c2c[nH]c3ncc(-c4ccc(Cl)cc4)cc23)c1F"
  meas.value: 46.15

Q: Return reported Plate 1-duplicate (% inhibition); argument: CN1CCN(c2ccc3nc(-c4c(N)c5c(F)cccc5[nH]c4=O)[nH]c3c2)CC1
A: -6.96

Q: Record request: Plate 1-duplicate (% inhibition) value, item CO[C@H]1C[C@@H]2CC[C@@H](C)[C@@](O)(O2)C(=O)C(=O)N2CCCC[C@H]2C(=O)O[C@H]([C@H](C)C[C@@H]2CC[C@@H](OCCO)[C@H](OC)C2)CC(=O)[C@H](C)/C=C(\C)[C@@H](O)[C@@H](OC)C(=O)[C@H](C)C[C@H](C)/C=C/C=C/C=C/1C
A: -27.79
